List of Population Pyknosed Nuclei (%) values.
Test system: HEK-293T
protocol.text: Multiplex assay against HEK293T
Format: toxicity, cell-based
condition: human, 48 h, 10 µM, compound concentration 10 uM, replicate 2
Response body: numeric value in %, unit text excluded.

given_smiles=CC(C)c1cc(Nc2nc(N3CCC[C@H](N)C3)ncc2C(N)=O)cc(C(C)C)n1 measured_attribute="Population Pyknosed Nuclei (%)" reading=50
given_smiles=CCCCN(CC)c1nc(C)nc2c1c(C)cn2-c1c(C)cc(C)cc1C.Cl measured_attribute="Population Pyknosed Nuclei (%)" reading=18
given_smiles=C[C@@H](Oc1cc(-n2cnc3ccc(CN4CCN(C)CC4)cc32)sc1C(N)=O)c1ccccc1C(F)(F)F measured_attribute="Population Pyknosed Nuclei (%)" reading=55
given_smiles=C=CC(=O)Nc1cc(-n2c(=O)ccc3cnc4ccc(-c5ccc(NS(C)(=O)=O)cc5)cc4c32)ccc1C measured_attribute="Population Pyknosed Nuclei (%)" reading=15

Okay, next one:
Quote HEK-293T Population Pyknosed Nuclei (%) for entry "N#Cc1cccc(C(=O)Nc2cc(-c3ccccc3)nn2-c2ccccc2)c1" .
50

----------
System: U2OS
protocol.text: Multiplex assay against U2OS
Assay type: toxicity, cell-based
condition: human, 12 h, 10 µM, compound concentration 10 uM, replicate 1
List of Population Mitochondria Different-Phenotype (%) values.
Response body: numeric value in %, unit text excluded.

For orientation, consider the following solved cases.
compound=Cc1ccc(S(=O)(=O)NC2c3ccccc3Oc3ccccc32)cc1 uom=% reading=28
compound=CCCCN(CC)c1nc(C)nc2c1c(C)cn2-c1c(C)cc(C)cc1C.Cl uom=% reading=51
compound=CC(C)c1cc(Nc2nc(N3CCC[C@H](N)C3)ncc2C(N)=O)cc(C(C)C)n1 uom=% reading=98
compound=Cc1ccc(NC(=O)Nc2cc(C(F)(F)F)ccc2F)cc1Nc1ccc2c(c1)NC(=O)/C2=C\c1ccc[nH]1 uom=% reading=22
compound=c1ccc(-c2oc3ncnc(NC[C@@H]4CCCO4)c3c2-c2ccccc2)cc1 uom=% reading=82

Answer with reported Population Mitochondria Different-Phenotype (%) of Cl.Cn1c2c(c3ccc(Cl)c(Cl)c31)C(C#N)C1(CCNCC1)NC2=O (centres undefined)
80

Answer with reported Population Mitochondria Different-Phenotype (%) of NC(=O)c1ccc2nc(-c3ccc(C4(N)CCC4)cc3)c(-c3ccccc3)n2n1 [BAY-1125976]
24

Answer with reported Population Mitochondria Different-Phenotype (%) of Oc1cccc(-c2nc(N3CCOCC3)c3oc4ncccc4c3n2)c1 [PI-103]
63

Answer with reported Population Mitochondria Different-Phenotype (%) of "CN(c1cc(C(F)(F)F)nc(OCCC(=O)O)n1)c1cccc2c1CCC2"
13

----------
Tested on: HEK-293T
protocol.text: Multiplex assay against HEK293T
Assay type: toxicity, cell-based
condition: human, 12 h, 1 µM, compound concentration 1 uM, replicate 2
List of Population Normal (%) values.
Response body: numeric value in %, unit text excluded.

For orientation, consider the following solved cases.
given_smiles=CNC(=O)Nc1ccc2c(c1)CC[C@@]21OC(=O)N(CC(=O)N(Cc2ccc(F)cc2)[C@@H](C)C(F)(F)F)C1=O measured_attribute="Population Normal (%)" reading=97
given_smiles=CC[C@@H]1C(=O)N(C)c2cnc(Nc3ccc(C(=O)NC4CCN(C)CC4)cc3OC)nc2N1C1CCCC1 measured_attribute="Population Normal (%)" reading=97

Answer with reported Population Normal (%) of "CCOC(=O)CCNc1cc(N2CCc3ccccc3CC2)nc(-c2ccccn2)n1"
98

Answer with reported Population Normal (%) of "Cc1ccc(NC(=O)Nc2cc(C(F)(F)F)ccc2F)cc1Nc1ccc2c(c1)NC(=O)/C2=C\c1ccc[nH]1"
97

----------
List of Population Tubulin-Different-Phenotype (%) values.
System: HEK-293T
protocol.text: Multiplex assay against HEK293T;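 as to Population Tubulin-Different-Phenotype (%): share of the cells with healthy nuclei that show this phenotype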
Format: toxicity, cell-based
condition: human, 24 h, 10 µM, compound concentration 10 uM, replicate 2

given_smiles=CCCc1cc(C)[nH]c(=O)c1CNC(=O)c1cc(-c2ccc(N3CCN(C(C)C)CC3)nc2)cc2c1cnn2C(C)C reading=81%
given_smiles=c1ccc(-c2oc3ncnc(NC[C@@H]4CCCO4)c3c2-c2ccccc2)cc1 reading=90%

Okay, next one:
Answer with reported Population Tubulin-Different-Phenotype (%) of "Cc1ccc(NC(=O)Nc2cc(C(F)(F)F)ccc2F)cc1Nc1ccc2c(c1)NC(=O)/C2=C\c1ccc[nH]1"
2%

----------
System: HEK-293T
protocol.text: Multiplex assay against HEK293T
Assay type: toxicity, cell-based
condition: human, 12 h, 1 µM, compound concentration 1 uM, replicate 2
measured.attribute: Population Pyknosed Nuclei (%)
Response body: numeric value in %, unit text excluded.

Answer with reported Population Pyknosed Nuclei (%) of "Cc1ccc(NC(=O)Nc2cc(C(F)(F)F)ccc2F)cc1Nc1ccc2c(c1)NC(=O)/C2=C\c1ccc[nH]1"
13

Answer with reported Population Pyknosed Nuclei (%) of "CC(C)[C@H](CO)Nc1nc(Nc2cccc(Cl)c2)c2ncn(C(C)C)c2n1"
50

Answer with reported Population Pyknosed Nuclei (%) of Cl.Cn1c2c(c3ccc(Cl)c(Cl)c31)C(C#N)C1(CCNCC1)NC2=O (stereo not drawn)
5

Answer with reported Population Pyknosed Nuclei (%) of "Cl.NC[C@@H]1O[C@H](C23CC4CC(CC(C4)C2)C3)Cc2c1ccc(O)c2O"
48

Answer with reported Population Pyknosed Nuclei (%) of "N#Cc1cccc(C(=O)Nc2cc(-c3ccccc3)nn2-c2ccccc2)c1"
48

Answer with reported Population Pyknosed Nuclei (%) of "CC(C)c1cc(Nc2nc(N3CCC[C@H](N)C3)ncc2C(N)=O)cc(C(C)C)n1"
68

Answer with reported Population Pyknosed Nuclei (%) of "CCOc1ccn(-c2ccc(F)cc2)c(=O)c1C(=O)Nc1ccc(Oc2ccnc(N)c2Cl)c(F)c1"
5

Answer with reported Population Pyknosed Nuclei (%) of "CCCc1cc(C)[nH]c(=O)c1CNC(=O)c1cc(-c2ccc(N3CCN(C(C)C)CC3)nc2)cc2c1cnn2C(C)C"
67

Answer with reported Population Pyknosed Nuclei (%) of "C[C@@H](Oc1cc(-n2cnc3ccc(CN4CCN(C)CC4)cc32)sc1C(N)=O)c1ccccc1C(F)(F)F"
56

Answer with reported Population Pyknosed Nuclei (%) of "CC[C@@H]1C(=O)N(C)c2cnc(Nc3ccc(C(=O)NC4CCN(C)CC4)cc3OC)nc2N1C1CCCC1"
13

Answer with reported Population Pyknosed Nuclei (%) of "CC[C@H](Nc1ncnc2[nH]cnc12)c1nc2cccc(F)c2c(=O)n1-c1ccccc1"
9

Answer with reported Population Pyknosed Nuclei (%) of "Oc1cccc(-c2nc(N3CCOCC3)c3oc4ncccc4c3n2)c1"
76

Answer with reported Population Pyknosed Nuclei (%) of "CCCCN(CC)c1nc(C)nc2c1c(C)cn2-c1c(C)cc(C)cc1C.Cl"
51

Answer with reported Population Pyknosed Nuclei (%) of "CN(c1cc(C(F)(F)F)nc(OCCC(=O)O)n1)c1cccc2c1CCC2"
46

Answer with reported Population Pyknosed Nuclei (%) of "Cc1c(Nc2ccc(S(=O)(=O)N3CCN(C)CC3)cc2F)nc2ccc(Nc3cnn(C4CC4)c3)cn2c1=O"
12

Answer with reported Population Pyknosed Nuclei (%) of CN1C(=O)[C@@H](NC(=O)c2cc3ccccc3[nH]2)N=C(c2ccccc2)c2ccccc21 [DEVAZEPIDE]
56

Answer with reported Population Pyknosed Nuclei (%) of "Cc1c(Nc2ccc(S(=O)(=O)N3CCN(C)CC3)cc2F)nc2ccc(-c3cnn(C4CC4)c3)cn2c1=O"
4

Answer with reported Population Pyknosed Nuclei (%) of "Cc1ccc(S(=O)(=O)NC2c3ccccc3Oc3ccccc32)cc1"
45

----------
System: U2OS
protocol.text: Multiplex assay against U2OS
Format: toxicity, cell-based
condition: human, 24 h, 10 µM, compound concentration 10 uM, replicate 2
List of Population Healthy Nuclei (%) values.
Response body: numeric value in %, unit text excluded.

For orientation, consider the following solved cases.
given_smiles=Cl.NC[C@@H]1O[C@H](C23CC4CC(CC(C4)C2)C3)Cc2c1ccc(O)c2O reading=29
given_smiles=CC(C)c1cc(Nc2nc(N3CCC[C@H](N)C3)ncc2C(N)=O)cc(C(C)C)n1 reading=23
given_smiles=C[C@@H](Oc1cc(-n2cnc3ccc(CN4CCN(C)CC4)cc32)sc1C(N)=O)c1ccccc1C(F)(F)F reading=47

Answer with reported Population Healthy Nuclei (%) of "Cc1c(Nc2ccc(S(=O)(=O)N3CCN(C)CC3)cc2F)nc2ccc(Nc3cnn(C4CC4)c3)cn2c1=O"
85

----------
Tested on: Fibroblast
protocol.text: Multiplex assay against human fibroblast
Type: toxicity, cell-based
condition: 24 h, 10 µM, compound concentration 10 uM, replicate 1
We label by threshold. Values of Population Mitochondria Different-Phenotype (%) strictly beneath 40% are label 1. Values of 40% and up are label 0.

These solved cases illustrate the format of a correct answer.
given_smiles=N#Cc1cccc(C(=O)Nc2cc(-c3ccccc3)nn2-c2ccccc2)c1 label="label 1"
given_smiles=C[C@@H](Oc1cc(-n2cnc3ccc(CN4CCN(C)CC4)cc32)sc1C(N)=O)c1ccccc1C(F)(F)F label="label 0"
given_smiles=Cc1ccc(S(=O)(=O)NC2c3ccccc3Oc3ccccc32)cc1 label="label 0"
given_smiles=CN(c1cc(C(F)(F)F)nc(OCCC(=O)O)n1)c1cccc2c1CCC2 label="label 1"

Identify whether the compound "Cl.NC[C@@H]1O[C@H](C23CC4CC(CC(C4)C2)C3)Cc2c1ccc(O)c2O" records Population Mitochondria Different-Phenotype (%) below 40%.
label 1

The measured values listed here are drawn from ChEMBL document CHEMBL4689842.
